Give Kd for every item shown.
Tested on: T1, soluble KIR3DL1*007/015-Fc (human, UniProt P43629 22-338)
T1 construct: also called KIR3DL1 allele 007/015; CD158e allele 007/015; not shown: Fc domain
T1 sequence (P43629 other isoform, or with tags, fused parts or gaps): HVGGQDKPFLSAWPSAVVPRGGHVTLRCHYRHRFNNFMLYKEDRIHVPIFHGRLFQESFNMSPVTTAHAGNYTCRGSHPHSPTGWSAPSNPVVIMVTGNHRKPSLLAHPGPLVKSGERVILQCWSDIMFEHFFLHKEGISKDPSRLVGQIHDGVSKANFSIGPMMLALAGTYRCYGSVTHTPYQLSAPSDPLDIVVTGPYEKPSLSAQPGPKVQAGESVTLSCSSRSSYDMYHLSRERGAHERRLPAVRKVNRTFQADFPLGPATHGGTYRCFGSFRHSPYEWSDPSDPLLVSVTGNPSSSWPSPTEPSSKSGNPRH
Assay: BLI (ForteBio QK), hIgG1
Numbers only, in nM.

Consider the reported Kd for these binders:
ET160-77 (antibody, human IgG1, V domains shown, Tested as human IgG1 (hIgG1), lambda light chain) VH: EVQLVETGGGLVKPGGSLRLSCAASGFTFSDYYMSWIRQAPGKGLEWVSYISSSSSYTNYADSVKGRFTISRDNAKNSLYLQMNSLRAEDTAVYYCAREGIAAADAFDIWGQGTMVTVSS VL: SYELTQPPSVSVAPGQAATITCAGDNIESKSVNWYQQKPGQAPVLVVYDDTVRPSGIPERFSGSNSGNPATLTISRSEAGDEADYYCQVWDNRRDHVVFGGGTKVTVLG    11.4
ET160-72 (antibody, human IgG1, V domains shown, Tested as human IgG1 (hIgG1), lambda light chain) VH: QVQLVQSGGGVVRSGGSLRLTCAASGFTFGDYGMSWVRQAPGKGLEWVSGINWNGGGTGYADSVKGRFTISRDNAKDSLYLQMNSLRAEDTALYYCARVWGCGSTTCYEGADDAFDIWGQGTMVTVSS VL: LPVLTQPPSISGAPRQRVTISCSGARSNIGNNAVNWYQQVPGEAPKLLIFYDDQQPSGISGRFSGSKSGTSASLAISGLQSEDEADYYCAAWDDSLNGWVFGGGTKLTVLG    11.6
ET160-73 (antibody, human IgG1, V domains shown, Tested as human IgG1 (hIgG1), kappa light chain) VH: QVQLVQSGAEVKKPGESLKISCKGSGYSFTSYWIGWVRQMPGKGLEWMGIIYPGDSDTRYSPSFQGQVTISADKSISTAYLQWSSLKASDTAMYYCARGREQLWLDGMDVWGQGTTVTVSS VL: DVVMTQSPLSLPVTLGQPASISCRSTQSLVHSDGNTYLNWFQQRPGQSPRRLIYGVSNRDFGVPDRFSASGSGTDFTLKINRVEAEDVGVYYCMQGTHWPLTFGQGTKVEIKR    16.1

Now, please, on to the next binder.
Documented Kd of ET160-74 (antibody, human IgG1, V domains shown, Tested as human IgG1 (hIgG1), lambda light chain) VH: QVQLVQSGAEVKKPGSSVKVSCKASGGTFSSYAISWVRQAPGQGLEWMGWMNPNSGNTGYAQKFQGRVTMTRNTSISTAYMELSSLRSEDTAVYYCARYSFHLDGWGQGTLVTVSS VL: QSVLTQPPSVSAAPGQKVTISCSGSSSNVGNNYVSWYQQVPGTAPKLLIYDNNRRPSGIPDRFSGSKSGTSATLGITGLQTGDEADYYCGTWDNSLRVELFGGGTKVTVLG : 10.1

Data credit: patent US20200031927A1
